Cited source for all entries: ChEMBL document CHEMBL1125323

# targetUnderTest: Vasopressin receptor (Rattus norvegicus, UniProt P48974+P30560+Q00788)
# testSummary: Antiantidiuretic potency in terms of negative logarithm of the effective doses divided by the estimated volume of distribution
# Type: functional, Urine
Numbered stars: 1 amine (or outer) side, 2 acyl side, 3 side chain; on linkers, the order of the positions; unused ones are H or OH. Bridge positions count the residues as written; N and C are the ends. Square brackets hold non-standard residues; d marks the D form. Peptide text beside a SMILES is read from it. X1 = O=C(CC1(S[*:2])CCCCC1)[*:1]
readout: pA2

CC[C@H](C)[C@@H]1NC(=O)[C@H](Cc2ccccc2)NC(=O)[C@@H](Cc2ccccc2)NC(=O)CC2(CCCCC2)SSC[C@@H](C(=O)N2CCC[C@H]2C(=O)N[C@@H](CCCN=C(N)N)C(=O)NCC(N)=O)NC(=O)[C@H](CC(N)=O)NC1=O ([dF]FINCPRG-NH2; linker N-5 via X1): 8.24
CCOc1ccc(C[C@H]2NC(=O)CC3(CCCCC3)SSC[C@@H](C(=O)N[C@@H](CCCN=C(N)N)C(=O)NCC(=O)NCCN)NC(=O)[C@H](CC(N)=O)NC(=O)[C@H](C(C)C)NC(=O)[C@H](Cc3ccccc3)NC2=O)cc1: 8.03
CCOc1ccc(C[C@H]2NC(=O)CC3(CCCCC3)SSC[C@@H](C(=O)NCCNC(=O)[C@H](N)CCCCN)NC(=O)[C@H](CC(N)=O)NC(=O)[C@H](C(C)C)NC(=O)[C@H](Cc3ccccc3)NC2=O)cc1: 7.76
CCOc1ccc(C[C@H]2NC(=O)CC3(CCCCC3)SSC[C@@H](C(=O)NCCNC(=O)[C@@H](N)CCCN=C(N)N)NC(=O)[C@H](CC(N)=O)NC(=O)[C@H](C(C)C)NC(=O)[C@H](Cc3ccccc3)NC2=O)cc1: 7.54
